Value source: ChEMBL document CHEMBL2203082

Measured logD by item
# TEST SUMMARY: n-Octanol-water partition coefficient, log P of the compound at pH 7.4 by shake flask method
# Format: physicochemical
Enter the number alone.

{"columns": ["SMILES RECORD", "RESULT TYPE", "VALUE REPORTED"],
 "data": [
  ["CN1CCC(C)(C)c2cc3c(-c4ccc(C(=S)N5CCCCC5)s4)c4ccc(=[N+](C)C)cc-4sc3cc21.F[P-](F)(F)(F)(F)F", "logD", 2.6]
]}

Incoming: Give its logD value. Item: CN(C)c1ccc2c(-c3ccc(C(=O)N4CCCCC4)s3)c3ccc(=[N+](C)C)cc-3sc2c1
Outgoing: 1.5

Incoming: Give its logD value. Item: CN1CCC(C)(C)c2cc3c(-c4ccc(C(=O)N5CCCCC5)s4)c4ccc(=[N+](C)C)cc-4sc3cc21.F[P-](F)(F)(F)(F)F
Outgoing: 1.7

Incoming: Give its logD value. Item: CCN(CC)C(=O)c1ccc(-c2c3ccc(=[N+](C)C)cc-3sc3cc(N(C)C)ccc23)s1
Outgoing: 1.2

Incoming: Give its logD value. Item: CCN(CC)C(=S)c1ccc(-c2c3ccc(=[N+](C)C)cc-3sc3c4c5c(cc23)CCCN5CCC4)s1.F[P-](F)(F)(F)(F)F
Outgoing: 1.7
